Sourced from patent US20250250357A1

target: T1, human MSLN-R3-his protein (human, UniProt Q13421 487-598); experiment: ELISA, coated MSLN-R3
T1 construct: Region 3 of human MSLN, His-tagged; also called human MSLN-R3 protein; hMSLN-R3-his; not shown: His tag
T1 sequence (Q13421 495-606): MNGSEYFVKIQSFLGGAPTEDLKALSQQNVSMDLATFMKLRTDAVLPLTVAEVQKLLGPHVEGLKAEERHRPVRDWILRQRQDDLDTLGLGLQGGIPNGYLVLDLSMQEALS
Consider the following binders and their measured OD450 at 0.1 nM readings.
Provide the reading as a plain figure in OD450.

Consider the following illustrative entries.
binder	unitsText	OD450 at 0.1 nM
S009-F1.62.9 (antibody, human IgG1, kappa, V domains shown, Human-murine chimeric antibody, human IgG1/kappa constant regions) VH: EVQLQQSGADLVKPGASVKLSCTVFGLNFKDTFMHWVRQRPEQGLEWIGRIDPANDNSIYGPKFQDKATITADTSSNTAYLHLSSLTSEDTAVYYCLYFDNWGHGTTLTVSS VL: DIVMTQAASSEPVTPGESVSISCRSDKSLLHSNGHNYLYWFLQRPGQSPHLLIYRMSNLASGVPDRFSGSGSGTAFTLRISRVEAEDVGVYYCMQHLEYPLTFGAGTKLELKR	OD450	0.26
S009-F1.56.1 (antibody, human IgG1, kappa, V domains shown, Human-murine chimeric antibody, human IgG1/kappa constant regions) VH: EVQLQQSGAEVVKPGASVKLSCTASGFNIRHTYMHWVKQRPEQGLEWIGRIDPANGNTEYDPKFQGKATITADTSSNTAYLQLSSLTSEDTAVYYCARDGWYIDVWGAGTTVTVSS VL: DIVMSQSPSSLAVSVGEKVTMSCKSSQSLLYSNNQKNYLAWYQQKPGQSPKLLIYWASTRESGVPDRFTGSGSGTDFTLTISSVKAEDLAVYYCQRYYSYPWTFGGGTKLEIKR	OD450	0.05
S009-F1.59.1 (antibody, human IgG1, kappa, V domains shown, Human-murine chimeric antibody, human IgG1/kappa constant regions) VH: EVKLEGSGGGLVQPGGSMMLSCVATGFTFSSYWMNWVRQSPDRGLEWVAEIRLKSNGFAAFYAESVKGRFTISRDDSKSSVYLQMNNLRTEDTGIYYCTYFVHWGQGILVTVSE VL: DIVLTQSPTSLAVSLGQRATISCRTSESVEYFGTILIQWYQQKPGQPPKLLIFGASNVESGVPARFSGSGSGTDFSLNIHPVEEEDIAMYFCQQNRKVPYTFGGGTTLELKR	OD450	1

We now examine a further binder.
// query Which value of OD450 at 0.1 nM has been reported for S009-F1.35.24 (antibody, human IgG1, kappa, V domains shown, Human-murine chimeric antibody, human IgG1/kappa constant regions) VH: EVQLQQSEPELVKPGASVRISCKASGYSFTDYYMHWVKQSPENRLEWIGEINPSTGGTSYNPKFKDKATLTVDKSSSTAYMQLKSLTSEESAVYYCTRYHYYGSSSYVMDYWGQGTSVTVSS VL: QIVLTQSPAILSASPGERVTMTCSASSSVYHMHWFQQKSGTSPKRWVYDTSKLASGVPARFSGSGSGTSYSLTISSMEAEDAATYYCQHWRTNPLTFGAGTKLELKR in the records?
// result 0.05
